- Test system: MT4
- Procedure details: Tested for 50% protection of MT-4 cells from HIV infection
- Format: functional
Consider the following molecules; for each one, report its Log 1/C.
Could you keep your reply to the number by itself?

q: // Log 1/C lookup, key: "CCc1c(Sc2cc(Cl)cc(Cl)c2)n(COCCO)c(=O)[nH]c1=O"
a: 7.85

q: What do you have for "COCc1cccc(Sc2c(C)c(=O)[nH]c(=O)n2COCCO)c1" ?
a: 5.14

q: Can you check "COc1ccccc1Sc1c(C)c(=O)[nH]c(=O)n1COCCO" next?
a: 4.72

q: And for "CCc1c(Sc2cc(Cl)cc(Cl)c2)n(COCCO)c(=S)[nH]c1=O" ?
a: 7.37

q: Then this molecule: "CC(C)c1c(Sc2ccccc2)n(COCCO)c(=S)[nH]c1=O"
a: 7.23

q: Also check "Cc1cc(C)cc(Sc2c(C)c(=O)[nH]c(=S)n2COCCO)c1"
a: 6.66

q: Entry "Cc1c(Sc2cccc(F)c2)n(COCCO)c(=O)[nH]c1=O" please
a: 5.48

q: Proceed to "Cc1c(Sc2cccc(I)c2)n(COCCO)c(=O)[nH]c1=O"
a: 5

q: Next up: "Cc1cc(C)cc(Sc2c(C(C)C)c(=O)[nH]c(=S)n2COCCO)c1"
a: 8.3

q: What about this molecule? "CCCc1c(Sc2ccccc2)n(COCCO)c(=S)[nH]c1=O"
a: 5

q: Could you do the same for "Cc1c(Sc2cccc(C(F)(F)F)c2)n(COCCO)c(=O)[nH]c1=O" , please?
a: 4.35

q: Further, for "CCc1c(Sc2cc(C)cc(C)c2)n(COCCO)c(=S)[nH]c1=O" ?
a: 8.11

q: Follow-up item: "Cc1c(Sc2cccc(C(C)(C)C)c2)n(COCCO)c(=O)[nH]c1=O"
a: 4.92

q: Here is the next molecule: "Cc1c(Sc2cccc(O)c2)n(COCCO)c(=O)[nH]c1=O"
a: 4.09

q: Moving on to "CCc1cccc(Sc2c(C)c(=O)[nH]c(=O)n2COCCO)c1"
a: 5.57

q: Subsequent entry: "Cc1c(Sc2cccc([N+](=O)[O-])c2)n(COCCO)c(=O)[nH]c1=O"
a: 4.47

q: Next record, please: "CCCc1c(Sc2ccccc2)n(COCCO)c(=O)[nH]c1=O"
a: 5.47

q: Same question for "Cc1c(Sc2cccc(C#N)c2)n(COCCO)c(=O)[nH]c1=O" please.
a: 5

q: Same again, this time with "Cc1cccc(Sc2c(C)c(=O)[nH]c(=O)n2COCCO)c1"
a: 5.59

q: Input "Cc1c(Sc2ccccc2[N+](=O)[O-])n(COCCO)c(=O)[nH]c1=O"
a: 3.85

q: Repeat for the following molecule: "Cc1c(Sc2cccc(Br)c2)n(COCCO)c(=O)[nH]c1=O"
a: 5.24

q: Same again, this time with "CC(C)c1c(Sc2ccccc2)n(COCCO)c(=O)[nH]c1=O"
a: 7.2

q: Another: "Cc1c(Sc2cccc(Cl)c2)n(COCCO)c(=O)[nH]c1=O"
a: 4.89

q: Moving on to "COC(=O)c1cccc(Sc2c(C)c(=O)[nH]c(=O)n2COCCO)c1"
a: 5.1

q: Param item: "COc1cccc(Sc2c(C)c(=O)[nH]c(=O)n2COCCO)c1"
a: 4.66

q: What do you have for "Cc1ccccc1Sc1c(C)c(=O)[nH]c(=O)n1COCCO" ?
a: 4.15

q: Same read-out for "C=CCc1c(Sc2ccccc2)n(COCCO)c(=O)[nH]c1=O" ?
a: 5.6

q: Try the molecule "Cc1ccc(Sc2c(C)c(=O)[nH]c(=O)n2COCCO)cc1"
a: 3.66
